# SYSTEM UNDER TEST: ScBem1-D1
# EXPERIMENTAL PROTOCOL: SPOT peptide array binding signal intensity (averaged, normalized) (arbitrary units (background-subtracted, floor 0; scale differs between SH3 domains)); higher = stronger binding of the SH3 domain to the peptide
Give SPOT peptide array binding signal intensity for every item shown.
Lab note: jot down the number only; don't add units.

## Task Report SPOT peptide array binding signal intensity for "RTRRRPPPPPIPSTQ" please.
## Result 13.5

## Task Report SPOT peptide array binding signal intensity for "KDKKTKPTPPPKPSH" please.
## Result 9

## Task Report SPOT peptide array binding signal intensity for "NPNRRAPRRPLSTQH" please.
## Result 28.5

## Task Report SPOT peptide array binding signal intensity for "PSRRDSLSIPRAVDA" please.
## Result 57

## Task Report SPOT peptide array binding signal intensity for "LLLLFVPDSPYDPAI" please.
## Result 7
